Values from patent US9216983B2

Target: PfDHODH (Plasmodium falciparum)
Assay: biochemical
Settings: IC50 PfDHODH, Table 1
Method: Briefly, the assay solution contained 100 mM HEPES, pH 8.0, 150 mM NaCl, 10% glycerol, 0.1% Triton X-100, 20 micro molar COQD (coenzyme QD), 200 micro molar L-dihydroorotate, and 120 micro molar DCIP. Reactions are initiated by addition of enzyme to a final concentration in the range of about […] to about 50 nM while maintaining the temperature of a circulating water bath at 25° C. […]
VALUE_TYPE: IC50 (µM)
Express your answer in µM, writing the number without its unit.

Return reported IC50; argument: CC1=NC2=NC=NC2C(Nc2ccc3ccccc3c2)=N1 (stereo not shown) 0.44

###

Biological target: PfDHODH (Plasmodium falciparum, UniProt Q08210)
Experiment: biochemical
Settings: Table 3, single determinations; read-out: PfDHODH IC50
VALUE_TYPE: IC50 (µM)
Express your answer in µM, writing the number without its unit.

Return reported IC50; argument: `Cc1cc(Nc2ccc3ccccc3c2)n2nccc2n1` 0.4

###

System: P. falciparum
Assay: Inhibition of cell proliferation, 3H-hypoxanthine uptake in P. falciparum-infected erythrocytes
Format: cell-based
Details: Plasmodium falciparum, 3D7, Erythrocyte, Table 5, 3D7 cells; read-out: EC50 P. falciparum 3D7 cells
# key: entry, value: EC50
Express your answer in nM, writing the number without its unit.

Use the examples below as a reference point.
> print(dat)
                                   compound  assay.value
1  Cc1cc(Nc2ccc(C(F)(F)F)cc2)n2ncnc2n1 [drawing 93]          330
2  Cc1nc2nc(C)c(C)c(Nc3ccc(C(F)(F)F)cc3)n2n1         3600
3     Cc1nc2ncnn2c(Nc2ccc(C(F)(F)F)cc2)c1Cl         2700
4  Cc1nc2nc(C)c(Cl)c(Nc3ccc(C(F)(F)F)cc3)n2n1         7100

Return reported EC50; argument: `Cc1cc(Nc2ccc(C(F)(F)F)cc2)n2nc(C)nc2n1` 930

Now the same for `Cc1nc2ncnn2c(Nc2ccc(C(F)(F)F)cc2)c1C` 2700

###

Target: PfDHODH (Plasmodium falciparum, UniProt Q08210)
Sequence (Q08210 24-569): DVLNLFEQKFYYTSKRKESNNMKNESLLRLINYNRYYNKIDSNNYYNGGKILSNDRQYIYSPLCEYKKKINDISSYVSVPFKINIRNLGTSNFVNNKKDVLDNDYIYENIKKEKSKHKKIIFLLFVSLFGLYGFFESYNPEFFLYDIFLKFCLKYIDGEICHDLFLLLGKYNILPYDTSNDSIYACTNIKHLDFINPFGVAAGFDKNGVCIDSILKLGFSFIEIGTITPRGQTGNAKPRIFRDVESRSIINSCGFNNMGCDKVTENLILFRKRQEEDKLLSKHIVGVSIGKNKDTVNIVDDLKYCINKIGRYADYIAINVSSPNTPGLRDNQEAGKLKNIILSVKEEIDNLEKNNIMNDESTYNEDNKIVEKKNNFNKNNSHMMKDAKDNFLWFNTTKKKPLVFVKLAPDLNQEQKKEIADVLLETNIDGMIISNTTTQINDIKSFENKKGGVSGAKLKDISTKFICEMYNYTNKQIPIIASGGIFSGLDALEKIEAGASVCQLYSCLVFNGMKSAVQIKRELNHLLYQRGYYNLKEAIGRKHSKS
Assay: biochemical
Settings: Table 5; read-out: PfDHODH IC50
Experimental: Briefly, the assay solution contained 100 mM HEPES, pH 8.0, 150 mM NaCl, 10% glycerol, 0.1% Triton X-100, 20 micro molar COQD (coenzyme QD), 200 micro molar L-dihydroorotate, and 120 micro molar DCIP. Reactions are initiated by addition of enzyme to a final concentration in the range of about […] to about 50 nM while maintaining the temperature of a circulating water bath at 25° C. […]
VALUE_TYPE: log10 IC50 (log10 of the value in nM)
Please interpret these as log10 of IC50 where IC50 is in nM.

Use the examples below as a reference point.
> print(dat)
                                molecule  assay.value
1    Cc1cc(Nc2ccc(Cl)c(C)c2)n2nc(C)nc2n1         3.14
2           Cc1cc(Nc2ccc(I)cc2)n2ncnc2n1         2.18
3      CCc1nc2nc(C)cc(Nc3ccc(OC)cc3)n2n1         3.35
4       Cc1cc(Nc2ccc(C)c(Cl)c2)n2ncnc2n1         2.38
5  Cc1cc(Nc2ccc(OCc3ccccc3)cc2)n2ncnc2n1         3.80

Return reported log10 IC50; argument: `Cc1cc(Nc2ccc(C(F)(F)F)cc2)n2nc(C)nc2n1` 2.81

Now the same for `Cc1nc2ncnn2c(Nc2ccc(C(F)(F)F)cc2)c1C` 3.08

Now the same for COc1ccc(Nc2cc(C)nc3nc(C)nn23)cc1Cl [drawing 98] 2.57

Now the same for `CCc1nc2nc(C)cc(Nc3ccc(F)c(Cl)c3)n2n1` 2.16

Now the same for `Cc1nc2ncnn2c(Nc2ccc(C(F)(F)F)cc2)c1Cl` 2.53

Now the same for `Cc1cc(Nc2ccc3c(c2)CCCC3)n2ncnc2n1` 1.70
